molecular target: 3CL Protease, MBP-tagged (SARS-CoV-2) (Severe acute respiratory syndrome coronavirus 2); construct: The assay was performed using 3CL Protease, MBP-tagged (SARS-CoV-2) Assay kit; MBP; purchased BPS Biosciences 79955-2; assay: biochemical; conditions: COVID-19 3CL Protease inhibitory activity at 30 µM compound; read-out: % Inhibition at 30 µM
The entries below come with measured inhibition at 30 µM values attached.
Output spec: scalar in %, unitless text.

Reference set (2 entries):
• O=C(CCl)N1CCN(Cc2ccccc2)[C@@]2(CCNC2=O)C1 [ET-103] = 44
• O=C(CCl)N1CCN(Cc2ccccc2)[C@]2(CCNC2=O)C1 [ET-104] = 92

The reported inhibition at 30 µM value, 3CL Protease, MBP-tagged (SARS-CoV-2) (Severe acute respiratory syndrome coronavirus 2), for O=C(CCl)N1CCN(Cc2ccc(F)cc2)C2(CCNC2=O)C1 (single isomer, unassigned) [ET-108] reads 84

# inhibition at 30 µM measured on 3CL Protease, MBP-tagged (SARS-CoV-2) (Severe acute respiratory syndrome coronavirus 2) for item O=C(CCl)N1CCN(Cc2ccc(F)cc2)C2(CCNC2=O)C1 (stereo not shown) [ET-107] = 38
